- System: LNCaP (prostate, carcinoma) cells
- Protocol: Cell viability assay, CellTiter-Glo (Example 21)
- Type: cell-based, human
- Stated conditions: 11.1 nM, 72 h

[
  {
    "Compound": "O=C1C2=C(CCN(Cc3cc(F)cc(F)c3)C2)N2CCN=C2N1Cc1ccc(Cl)cc1",
    "LNCaP cell viability": "13.3 ± 1.6 % of control"
  },
  {
    "Compound": "[N-]=[N+]=Nc1cccc(CN2CCC3=C(C2)C(=O)N(Cc2ccc(C(F)(F)F)cc2)C2=NCCN23)c1",
    "LNCaP cell viability": "32.4 ± 2.3 % of control"
  },
  {
    "Compound": "[N-]=[N+]=Nc1ccc(CN2C(=O)C3=C(CCN(Cc4cc(F)cc(F)c4)C3)N3CCN=C23)cc1",
    "LNCaP cell viability": "37.9 ± 3.3 % of control"
  },
  {
    "Compound": "O=C1C2=C(CCN(Cc3cccc(F)c3)C2)N2CCN=C2N1Cc1ccc(C(F)(F)F)cc1 [I/3, reference compound]",
    "LNCaP cell viability": "95.0 ± 7.4 % of control"
  }
]

----------
- Tested on: EBC-1 (lung, squamous cell carcinoma) cells
- Protocol: Cell viability assay, CellTiter-Glo (Example 21)
- Type: cell-based, human
- Stated conditions: 300 nM, 72 h treatment
Let's look at some molecules and their measured EBC-1 (lung, squamous cell carcinoma) cell viability (% of control).
Quantity: EBC-1 (lung, squamous cell carcinoma) cell viability (% of control)

[
  {
    "Molecule": "O=C1C2=C(CCN(Cc3cccc(F)c3)C2)N2CCN=C2N1Cc1ccc(C(F)(F)F)cc1 [I/3, reference compound]",
    "Study target": "EBC-1 (lung, squamous cell carcinoma) cells",
    "Result": "22.2 ± 0.1 % of control"
  },
  {
    "Molecule": "[N-]=[N+]=Nc1cccc(CN2CCC3=C(C2)C(=O)N(Cc2ccc(Cl)cc2)C2=NCCN23)c1",
    "Study target": "EBC-1 (lung, squamous cell carcinoma) cells",
    "Result": "22.2 ± 1.3 % of control"
  },
  {
    "Molecule": "O=C1C2=C(CCN(Cc3cc(F)cc(F)c3)C2)N2CCN=C2N1Cc1ccc(Cl)cc1",
    "Study target": "EBC-1 (lung, squamous cell carcinoma) cells",
    "Result": "23.5 ± 1.3 % of control"
  },
  {
    "Molecule": "[N-]=[N+]=Nc1ccc(CN2C(=O)C3=C(CCN(Cc4cc(F)cc(F)c4)C3)N3CCN=C23)cc1",
    "Study target": "EBC-1 (lung, squamous cell carcinoma) cells",
    "Result": "23.5 ± 2.5 % of control"
  },
  {
    "Molecule": "[N-]=[N+]=Nc1cccc(CN2CCC3=C(C2)C(=O)N(Cc2ccc(C(F)(F)F)cc2)C2=NCCN23)c1",
    "Study target": "EBC-1 (lung, squamous cell carcinoma) cells",
    "Result": "20.0 ± 0.0 % of control"
  },
  {
    "Molecule": "O=C1C2=C(CCN(Cc3ccccc3)C2)N2CCN=C2N1Cc1ccc(C(F)(F)F)cc1 [I/1, reference compound]",
    "Study target": "EBC-1 (lung, squamous cell carcinoma) cells",
    "Result": "24.2 ± 2.1 % of control"
  },
  {
    "Molecule": "O=C1C2=C(CCN(Cc3cc(F)cc(F)c3)C2)N2CCN=C2N1Cc1ccc(C(F)(F)F)cc1",
    "Study target": "EBC-1 (lung, squamous cell carcinoma) cells",
    "Result": "20.1 ± 0.0 % of control"
  },
  {
    "Molecule": "O=C1C2=C(CCN(Cc3cc(F)cc(F)c3)C2)N2CCN=C2N1Cc1ccc(F)cc1",
    "Study target": "EBC-1 (lung, squamous cell carcinoma) cells",
    "Result": "23.8 ± 0.6 % of control"
  },
  {
    "Molecule": "O=C1C2=C(CCN(Cc3cccc(F)c3)C2)N2CCN=C2N1Cc1ccc(F)cc1 [I/6, reference compound]",
    "Study target": "EBC-1 (lung, squamous cell carcinoma) cells",
    "Result": "24.1 ± 2.4 % of control"
  }
]
